Test system: RAW264.7
MEASUREMENT_NOTES: % inhibition against TNF-alpha release in RAW 264.7 cells in the supernatant
Assay type: functional, Mus musculus
Set-up: concentration or dose not given beside the values
In this section we review reported Inhibition values for a set of compounds.
VALUE_KIND: Inhibition (%)

smiles_representation=CO/N=C(\C)c1ccc(Nc2c3ccccc3nc3ccccc23)cc1 value_reported=7.2
smiles_representation=CC(=O)c1ccc(Nc2c3ccccc3nc3ccccc23)cc1 value_reported=47.2
smiles_representation=CC(=O)c1ccc(Oc2c3c(nc4ccccc24)CCCC3)cc1 value_reported=48.9
smiles_representation=COc1cccc2c(Oc3ccc(C(C)=O)cc3)c3ccccc3nc12 value_reported=34.3
smiles_representation=CC(=O)c1ccc(Oc2c3ccccc3nc3ccc(Cl)cc23)cc1 value_reported=4.6
smiles_representation=COc1ccc2nc3cc(Cl)ccc3c(Oc3ccc(C(C)=O)cc3)c2c1 value_reported=33.1
smiles_representation=CC(=O)/C=C/c1ccc(Oc2c3ccccc3nc3ccccc23)cc1 value_reported=-15.7
smiles_representation=CC(=O)c1ccc(Oc2c3ccccc3nc3ccccc23)cc1 value_reported=45.6
smiles_representation=C/C(=N\O)c1ccc(Nc2c3ccccc3nc3ccccc23)cc1 value_reported=44.9

====

Species on record: Rattus norvegicus
MEASUREMENT_NOTES: % inhibition against mast cell degranulation by measuring the content of histamine in the supernatant
Format: functional
Parameters: concentration or dose not given beside the values
# binarize Inhibition: threshold 10% inclusive, high side YES, low side NO

smiles_representation=CC(=O)c1ccc(Nc2c3ccccc3nc3ccccc23)cc1 group=YES
smiles_representation=C/C(=N\O)c1ccc(Nc2c3ccccc3nc3ccccc23)cc1 group=YES
smiles_representation=CC(=O)c1ccc(Oc2c3ccccc3nc3ccc(Cl)cc23)cc1 group=YES
smiles_representation=COc1ccc2nc3ccccc3c(Oc3ccc(C(C)=O)cc3)c2c1 group=NO
smiles_representation=CC(=O)/C=C/c1ccc(Oc2c3ccccc3nc3ccccc23)cc1 group=NO
smiles_representation=COc1ccc2nc3cc(Cl)ccc3c(Oc3ccc(C(C)=O)cc3)c2c1 group=NO
smiles_representation=CC(=O)COc1ccc(Nc2c3ccccc3nc3ccccc23)cc1 group=YES
smiles_representation=CC(=O)c1ccc(Oc2c3ccccc3nc3ccccc23)cc1 group=YES
smiles_representation=CC(=O)c1ccc(Oc2c3c(nc4ccccc24)CCCC3)cc1 group=NO

====

Tested on: RAW264.7
MEASUREMENT_NOTES: Inhibitory activity against TNF-alpha release in RAW 264.7 cells in the supernatant
Type: functional, cell-based
CONDITION_CONTEXT: Mus musculus
pIC50: −log10 of the molar value.
VALUE_KIND: pIC50

compound=COc1ccc2nc3ccccc3c(Oc3ccc(C(C)=O)cc3)c2c1 value_reported=4.71
compound=CC(=O)/C=C/c1ccc(Oc2c3ccccc3nc3ccccc23)cc1 value_reported="< 4.52"
compound=CC(=O)c1ccc(Oc2c3c(nc4ccccc24)CCCC3)cc1 value_reported="< 4.52"
compound=COc1ccc2nc3cc(Cl)ccc3c(Oc3ccc(C(C)=O)cc3)c2c1 value_reported="< 4.52"
compound=CC(=O)c1ccc(Oc2c3ccccc3nc3ccccc23)cc1 value_reported="< 4.52"
compound=O=Cc1ccc(Oc2c3ccccc3nc3ccccc23)cc1 value_reported="< 4.52"
compound=COc1cccc2c(Oc3ccc(C(C)=O)cc3)c3ccccc3nc12 value_reported="< 4.52"
compound="C[C@@H]1C[C@H]2[C@@H]3CCC4=CC(=O)C=C[C@]4(C)[C@@]3(F)[C@@H](O)C[C@]2(C)[C@@]1(O)C(=O)CO [DEXAMETHASONE]" value_reported=6.38
compound=CC(=O)c1ccc(Oc2c3ccccc3nc3ccc(Cl)cc23)cc1 value_reported="< 4.52"

====

Tested on: N9
MEASUREMENT_NOTES: % inhibition against TNF-alpha release in N9 cells in the supernatant
Format: functional, Mus musculus
Design: concentration or dose not given beside the values
VALUE_KIND: Inhibition

smiles_representation=CC(=O)COc1ccc(Nc2c3ccccc3nc3ccccc23)cc1 value_kind=Inhibition value_reported=6.6%
smiles_representation=COc1ccc2nc3ccccc3c(Oc3ccc(C(C)=O)cc3)c2c1 value_kind=Inhibition value_reported=36.1%
smiles_representation=COc1cccc2c(Oc3ccc(C(C)=O)cc3)c3ccccc3nc12 value_kind=Inhibition value_reported=19.7%
smiles_representation=CO/N=C(\C)c1ccc(Nc2c3ccccc3nc3ccccc23)cc1 value_kind=Inhibition value_reported=39.3%
smiles_representation=COc1ccc2nc3cc(Cl)ccc3c(Oc3ccc(C(C)=O)cc3)c2c1 value_kind=Inhibition value_reported=45.9%
smiles_representation=C/C(=N\O)c1ccc(Nc2c3ccccc3nc3ccccc23)cc1 value_kind=Inhibition value_reported=40.1%
smiles_representation=CC(=O)c1ccc(Oc2c3c(nc4ccccc24)CCCC3)cc1 value_kind=Inhibition value_reported=-3.5%
smiles_representation=CC(=O)c1ccc(Oc2c3ccccc3nc3ccc(Cl)cc23)cc1 value_kind=Inhibition value_reported=12.3%
smiles_representation=CC(=O)c1ccc(Oc2c3ccccc3nc3ccccc23)cc1 value_kind=Inhibition value_reported=23.9%

====

Listed here: items and their measured IC50.
Organism: Rattus norvegicus
MEASUREMENT_NOTES: Inhibitory activity against mast cell degranulation by measuring the content of histamine in the supernatant
Type: functional
VALUE_KIND: IC50

compound=COc1ccc2nc3cc(Cl)ccc3c(Oc3ccc(C(C)=O)cc3)c2c1 value_reported="> 30 µM"
compound=CC(=O)/C=C/c1ccc(Oc2c3ccccc3nc3ccccc23)cc1 value_reported="> 30 µM"
compound=CC(=O)c1ccc(Oc2c3ccccc3nc3ccc(Cl)cc23)cc1 value_reported="> 30 µM"
compound=COc1cccc2c(Oc3ccc(C(C)=O)cc3)c3ccccc3nc12 value_reported="16 µM"
compound=O=Cc1ccc(Oc2c3ccccc3nc3ccccc23)cc1 value_reported="21.5 µM"
compound=CC(=O)c1ccc(Nc2c3ccccc3nc3ccccc23)cc1 value_reported="> 30 µM"
compound=COc1ccc2nc3ccccc3c(Oc3ccc(C(C)=O)cc3)c2c1 value_reported="> 30 µM"
compound=CC(=O)c1ccc(Oc2c3c(nc4ccccc24)CCCC3)cc1 value_reported="> 30 µM"
compound="CCN(CC)CCCC(C)Nc1c2ccc(Cl)cc2nc2ccc(OC)cc12 (centres undefined) [QUINACRINE]" value_reported="31.2 µM"
compound=C/C(=N\O)c1ccc(Nc2c3ccccc3nc3ccccc23)cc1 value_reported="> 30 µM"
compound=CC(=O)COc1ccc(Nc2c3ccccc3nc3ccccc23)cc1 value_reported="> 30 µM"
compound="CN1CCN(CCCN2c3ccccc3Sc3ccc(C(F)(F)F)cc32)CC1 [TRIFLUOPERAZINE]" value_reported="10.1 µM"
compound=CO/N=C(\C)c1ccc(Nc2c3ccccc3nc3ccccc23)cc1 value_reported="20.8 µM"
compound=CC(=O)c1ccc(Oc2c3ccccc3nc3ccccc23)cc1 value_reported="> 30 µM"

====

Organism: Rattus norvegicus
MEASUREMENT_NOTES: Inhibitory activity against mast cell degranulation by measuring the content of beta-glucuronidase in the supernatant
Format: functional
pIC50: −log10 of the molar value.
Below, each of the compounds is paired with its reported pIC50 value.
VALUE_KIND: pIC50

compound=CC(=O)COc1ccc(Nc2c3ccccc3nc3ccccc23)cc1 value_kind=pIC50 value_reported="< 4.52"
compound=COc1ccc2nc3cc(Cl)ccc3c(Oc3ccc(C(C)=O)cc3)c2c1 value_kind=pIC50 value_reported="< 4.52"
compound=CN1CCN(CCCN2c3ccccc3Sc3ccc(C(F)(F)F)cc32)CC1 value_kind=pIC50 value_reported=4.89
compound=COc1ccc2nc3ccccc3c(Oc3ccc(C(C)=O)cc3)c2c1 value_kind=pIC50 value_reported="< 4.52"
compound=CC(=O)/C=C/c1ccc(Oc2c3ccccc3nc3ccccc23)cc1 value_kind=pIC50 value_reported="< 4.52"
compound=C/C(=N\O)c1ccc(Nc2c3ccccc3nc3ccccc23)cc1 value_kind=pIC50 value_reported="< 4.52"
compound=CC(=O)c1ccc(Oc2c3ccccc3nc3ccccc23)cc1 value_kind=pIC50 value_reported="< 4.52"
compound=CC(=O)c1ccc(Oc2c3ccccc3nc3ccc(Cl)cc23)cc1 value_kind=pIC50 value_reported="< 4.52"
compound="CCN(CC)CCCC(C)Nc1c2ccc(Cl)cc2nc2ccc(OC)cc12 (stereo unspecified)" value_kind=pIC50 value_reported=4.54
compound=CC(=O)c1ccc(Oc2c3c(nc4ccccc24)CCCC3)cc1 value_kind=pIC50 value_reported="< 4.52"
compound=CC(=O)c1ccc(Nc2c3ccccc3nc3ccccc23)cc1 value_kind=pIC50 value_reported="< 4.52"

Recorded values, source ChEMBL document CHEMBL1135625.
